- Measurement Target: UniProtKB P41145
- Sequence (P41145 whole entry): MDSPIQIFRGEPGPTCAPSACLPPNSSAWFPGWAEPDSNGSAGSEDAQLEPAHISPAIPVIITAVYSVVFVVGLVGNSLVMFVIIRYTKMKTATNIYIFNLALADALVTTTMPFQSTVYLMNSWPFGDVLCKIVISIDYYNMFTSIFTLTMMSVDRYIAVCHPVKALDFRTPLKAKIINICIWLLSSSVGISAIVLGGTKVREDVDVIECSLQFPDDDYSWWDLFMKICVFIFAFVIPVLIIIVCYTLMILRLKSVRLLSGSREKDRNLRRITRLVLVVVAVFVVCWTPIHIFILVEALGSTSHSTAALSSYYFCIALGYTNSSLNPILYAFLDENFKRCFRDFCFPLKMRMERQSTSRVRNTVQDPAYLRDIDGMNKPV
- Assay Notes: Inhibition of U69,593-stimulated [35S]GTPγS binding
- Format: biochemical
- Condition Info: ratio of Ke values, selectivity for KOR relative to DOR (fold)
Observable: δ/κ

Illustrative cases are given below, each with its answer.
smiles_text=CC(C)[C@@H](CN1CCC(c2cccnc2)CC1)NC(=O)[C@H]1Cc2ccc(O)cc2CN1 value_reported=2,235
smiles_text=CC(C)[C@@H](CN1CCC(c2ccncc2)CC1)NC(=O)[C@H]1Cc2ccc(O)cc2CN1 value_reported=1,353
smiles_text=CC(C)[C@@H](CN1CCC(C)(c2cccnc2)CC1)NC(=O)[C@H]1Cc2ccc(O)cc2CN1 value_reported=>16,700
smiles_text=CC(C)[C@@H](CN1CCC(c2ccccn2)CC1)NC(=O)[C@H]1Cc2ccc(O)cc2CN1 value_reported=1,372

Now take the following compound into account.
Give recorded δ/κ. CC(C)[C@@H](CN1CCC(C)(c2ccncc2)CC1)NC(=O)[C@H]1Cc2ccc(O)cc2CN1
1,434
